# credit: patent US20200121803A1

- testTarget: T1, human CD98, endogenously expressed on Molt-4 human acute lymphoblastic leukemia cells (human)
- T1 chain: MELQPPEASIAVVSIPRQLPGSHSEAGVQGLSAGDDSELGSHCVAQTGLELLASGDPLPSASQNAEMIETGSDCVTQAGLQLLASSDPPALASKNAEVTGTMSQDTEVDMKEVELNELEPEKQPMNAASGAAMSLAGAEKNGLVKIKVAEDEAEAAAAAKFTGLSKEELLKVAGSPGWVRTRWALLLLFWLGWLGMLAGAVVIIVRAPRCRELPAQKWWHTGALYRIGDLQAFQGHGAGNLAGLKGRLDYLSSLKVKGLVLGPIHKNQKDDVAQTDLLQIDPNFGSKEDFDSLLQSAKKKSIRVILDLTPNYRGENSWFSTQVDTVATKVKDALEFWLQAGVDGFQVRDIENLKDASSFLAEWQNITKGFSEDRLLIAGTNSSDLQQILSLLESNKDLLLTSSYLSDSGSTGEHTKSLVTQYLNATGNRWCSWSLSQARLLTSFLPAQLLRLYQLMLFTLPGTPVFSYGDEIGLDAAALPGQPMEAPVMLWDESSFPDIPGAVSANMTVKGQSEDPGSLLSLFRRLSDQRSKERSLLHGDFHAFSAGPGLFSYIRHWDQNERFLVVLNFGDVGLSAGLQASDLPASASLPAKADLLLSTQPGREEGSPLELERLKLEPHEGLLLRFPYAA
- assayText: cell-based or functional assay
endpointLabel: % Cell Viability at 50 nM (%)
# number only, unit % dropped from output

binder	% Cell Viability at 50 nM, %
CD98 (CL-huAb104)-ZT (antibody, human IgG1, kappa, L234A L235A, V domains shown, synthon ZT on reduced interchain cysteines (sites not given)) VH: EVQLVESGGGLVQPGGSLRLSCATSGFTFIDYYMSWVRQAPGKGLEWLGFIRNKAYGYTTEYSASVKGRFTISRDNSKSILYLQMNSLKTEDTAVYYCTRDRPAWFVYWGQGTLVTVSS VL: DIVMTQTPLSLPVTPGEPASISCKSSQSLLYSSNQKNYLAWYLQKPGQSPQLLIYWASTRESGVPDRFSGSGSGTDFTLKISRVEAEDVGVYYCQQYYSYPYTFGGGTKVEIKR	3.3

Return % Cell Viability at 50 nM for the following binder: CD98 (CL-huAb110)-AAD (antibody, human IgG1, kappa, L234A L235A, V domains shown, synthon AAD on reduced interchain cysteines (sites not given)) VH: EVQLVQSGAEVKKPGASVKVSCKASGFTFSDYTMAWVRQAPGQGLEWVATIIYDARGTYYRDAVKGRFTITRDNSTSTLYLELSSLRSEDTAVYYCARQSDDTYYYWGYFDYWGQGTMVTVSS VL: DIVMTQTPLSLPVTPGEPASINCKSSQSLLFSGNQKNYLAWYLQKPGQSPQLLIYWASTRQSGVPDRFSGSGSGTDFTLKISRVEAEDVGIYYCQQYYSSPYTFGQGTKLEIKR
1.5
